Tested on: HEp-2 cells
Experiment: Cytotoxicity Determination (CCK-8, without addition of virus)
Format: cell-based
Metric Name: CC50

Recall the recorded CC50 for COc1ccc(C(O)(CNC(=O)c2ccc(O[C@H]3CCNC3=O)c(Cl)c2)C(F)(F)F)cc1-c1ccc(F)c(Cl)c1 (stereo partly shown) with HEp-2 cells and state it. 10 to 100 µM

###

Give measured CC50 at 5 days for each item. Keep answers brief.
Assay: Cytotoxicity Determination (CCK-8, without addition of virus)
Format: cell-based
Conditions: human, 50% cytotoxicity concentration (CC50)

Previously resolved entries follow.
>  <Compound>
COc1cc(C(=O)NCC(O)(c2cc3c(c(-c4ccc(F)c(Cl)c4)n2)OCC3C)C2CC2)ccc1OCCO (stereo not shown) [Compound 308]

>  <Metric Name>
CC50 at 5 days

>  <Experimental Result>
10 to 100 µM

$$$$
>  <Compound>
COc1ccc(C(=O)NCC(O)(c2ccc(OC)c(-c3ccc(F)c(Cl)c3)n2)C(F)(F)F)cc1OC (stereo not shown) [Compound 337]

>  <Metric Name>
CC50 at 5 days

>  <Experimental Result>
10 to 100 µM

$$$$
>  <Compound>
COc1cc(C(=O)NCC(O)(c2cc3c(c(-c4ccc(C(F)(F)F)cc4)n2)OCC3(C)N)C(F)(F)F)ccc1OCCO (stereo not shown) [Compound 645]

>  <Metric Name>
CC50 at 5 days

>  <Experimental Result>
10 to 100 µM

$$$$
>  <Compound>
CNC(=O)COc1ccc(C(=O)NCC(C)(O)c2cccc(-c3ccc(F)c(Cl)c3)n2)cc1OC (stereo not shown) [Compound 121]

>  <Metric Name>
CC50 at 5 days

>  <Experimental Result>
> 100 µM

$$$$
>  <Compound>
COc1cc(C(=O)NCC(O)(c2cc3c(c(-c4ccc(C(N)=O)cc4)n2)OCC3(C)N)C(F)(F)F)ccc1OCCO (stereo not shown) [Compound 674]

>  <Metric Name>
CC50 at 5 days

>  <Experimental Result>
> 100 µM

$$$$
>  <Compound>
COc1cc(C(=O)NCC(O)(c2cc(C(C)(N)CF)cc(-c3ccc(F)c(Cl)c3)n2)C(F)(F)F)ccc1OC1CC1 (stereo not shown) [Compound 534]

>  <Metric Name>
CC50 at 5 days

>  <Experimental Result>
10 to 100 µM

$$$$

Okay, next one:
Name the reported CC50 at 5 days value associated with the compound COc1cc(C(=O)NCC(O)(c2cc(C(C)(C)N)cc(-c3ccc(F)c(Cl)c3)n2)C(F)(F)F)ccc1NC(C)=O (stereo not shown) [Compound 592] 10 to 100 µM

###

System: HEp-2 cells
Experiment: Cytotoxicity Determination (CCK-8, without addition of virus)
Type: cell-based
Details: human, 5 days
Give measured CC50 for each item. Keep answers brief.

Previously resolved entries follow.
>  <Compound>
COc1cc(C(=O)NCC(O)(c2cc(C(C)(N)CF)cc(-c3ccc(F)cc3)n2)C(F)(F)F)ccc1OCC(N)=O (single isomer, unassigned) [Compound 656]

>  <Metric Name>
CC50

>  <Experimental Result>
10 to 100 µM

$$$$
>  <Compound>
COc1cc(C(=O)NCC(O)(c2cc(C(C)(N)CF)cc(-c3ccc(F)cc3)n2)C(F)(F)F)ccc1OCC(N)=O (single isomer, unassigned) [Compound 655]

>  <Metric Name>
CC50

>  <Experimental Result>
> 100 µM

$$$$
>  <Compound>
COc1cc(C(=O)NCC(O)(c2ccc(OC)c(-c3ccc(F)c(Cl)c3)n2)C(F)F)ccc1OCC(N)=O (stereo not shown) [Compound 442]

>  <Metric Name>
CC50

>  <Experimental Result>
10 to 100 µM

$$$$

Batch lookup, CC50 per entry.
1. COc1cc(C(=O)NCC(O)(c2ccc(OC)c(-c3ccc(F)c(Cl)c3)n2)C2CC2)ccc1OCCO (stereo not shown) [Compound 243]
2. COc1cc(C(=O)NCC(O)(c2ccc(OC)c(-c3ccc(F)c(Cl)c3)n2)C(F)F)ccc1OCC(N)=O (stereo not shown) [Compound 447]
3. CCC(O)(CNC(=O)c1ccc(OCCF)c(OC)c1)c1ccc(OC)c(-c2ccc(F)c(Cl)c2)n1 (single isomer, unassigned) [Compound 122b]
4. COc1cc(C(=O)NCC(O)(c2ccc(OC)c(-c3ccc(F)c(Cl)c3)n2)C(F)(F)F)ccc1OCC(N)=O (single isomer, unassigned) [Compound 239]

1: 10 to 100 µM; 2: > 100 µM; 3: 10 to 100 µM; 4: 10 to 100 µM

Values from patent US11021444B2
